molecular target: Calmodulin-1 (Homo sapiens); test: small molecules binding calmodulin-1 with EGTA – biochemical, small-molecule microarray, Cy5-labelled CALM1, profiling panel (AID 1111); details: Cy5-CALM1 binding fluorescence, higher = more signal;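 note: labelled calmodulin applied in Tris saline Tween buffer holding calcium plus EGTA and DTT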
Exercise: for every item that follows, state its recorded composite z-score.
Give bare numbers.

Worked cases, composite z-score given:
compound="CCCCCC1=C2CNC(CC(C)C)(C(=O)OC)C=C2C(C)C1=O (configuration not stated)" obs_value=1.64
compound=NCCCCCCNC(=O)[C@@H]1C[C@@H]2C(=O)N3CCC[C@H]3C(=O)N2[C@@H]1c1cccc(OCCO)c1 obs_value=0.263
compound=COC(=O)[C@@]1(Cc2ccc(OC)cc2)[C@H]2c3cc(C(=O)N(C)C)[nH]c3C[C@H]2CN1C(=O)c1ccccc1 obs_value=-0.0912
compound=CCOC(=O)C[C@H]1[C@H](OC(=O)c2ccccc2-c2ccccc2)[C@@H](NC(=O)C2CCCCC2)c2cc(OCCCO)ccc2N1C(=O)c1ccc2ccccc2n1 obs_value=0.236
compound=COCCOC(=O)N1C(=O)[C@@]2(c3cc(C#CCC(C(=O)OC)C(=O)OC)ccc31)[C@H](C(=O)Nc1nc3ccccc3s1)[C@H]1C(=O)O[C@H](c3ccccc3)[C@H](c3ccccc3)N1[C@@H]2c1ccc(O)cc1 obs_value=0.975
compound="O=C(NCC(O)CO)[C@@]1(CCS(=O)(=O)c2ccccc2)N=C(c2ccc(OCCCO)cc2)O[C@H]1c1ccccc1 (some centres not stated)" obs_value=1.51

Could you tell me which composite z-score is on file for "CO[C@H]1O[C@H](CO)[C@@H](OC(=O)Nc2ccc3c(c2)OCO3)[C@H](OC(=O)Nc2ccccc2-c2ccccc2)[C@H]1OC(=O)Nc1ccccc1-c1ccccc1" ?
1.54

* * *

What composite z-score was measured for each of the following?
target: Follistatin-related protein 3 (Homo sapiens) (UniProt O95633); test: compounds binding follistatin-related protein 3 – biochemical, small-molecule microarray, 635 nm fluorescence, primary screen (AID 1105); conditions: FSTL3 binding, higher = more signal;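 note: score merges emission near 667 nm and signal to noise per printed spot across three slides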
Sequence (O95633 whole entry, looked up): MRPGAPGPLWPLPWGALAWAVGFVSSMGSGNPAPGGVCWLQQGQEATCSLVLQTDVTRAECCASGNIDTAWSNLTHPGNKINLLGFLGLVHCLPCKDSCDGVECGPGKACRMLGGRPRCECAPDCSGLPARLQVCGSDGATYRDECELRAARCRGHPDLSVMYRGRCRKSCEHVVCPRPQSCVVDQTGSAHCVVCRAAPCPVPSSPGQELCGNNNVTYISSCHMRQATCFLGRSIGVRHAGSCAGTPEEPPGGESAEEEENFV
One number for each entry.

These recorded examples may help you get a feel for the data.
molecule=C=CCOC(=O)[C@H]1[C@@H]2C(=O)O[C@@H](c3ccccc3)[C@@H](c3ccccc3)N2[C@@H](c2ccc(OCCOC(=O)[C@H]3C[C@H]4C(=O)N[C@@H](CC(C)C)C(=O)N4[C@H]3c3ccc(O)cc3)cc2)[C@]12C(=O)Nc1ccccc12 subject_of_test="Follistatin-related protein 3 (Homo sapiens) (UniProt O95633)" obs_value=1.4
molecule=C=C(/C(=C/C[C@@H](OC(C)=O)c1cccc(OCCO)c1)c1cnc2ccccc2c1)C(C)C subject_of_test="Follistatin-related protein 3 (Homo sapiens) (UniProt O95633)" obs_value=1.37
molecule=CC(C)N1C(=O)c2ccccc2[C@](C)(C(=O)NCC(F)(F)F)[C@@H]1c1ccc(CO)cc1 subject_of_test="Follistatin-related protein 3 (Homo sapiens) (UniProt O95633)" obs_value=-0.961
molecule=COC(=O)C(CC#Cc1ccc2c(c1)[C@]1(C(=O)N2)[C@H](c2ccc(OCCO)cc2)N2[C@H](c3ccccc3)[C@H](c3ccccc3)OC(=O)[C@H]2[C@@H]1C(=O)N1CCCCCCC1)C(=O)OC subject_of_test="Follistatin-related protein 3 (Homo sapiens) (UniProt O95633)" obs_value=1.63
molecule="CC(C)C(O)C1C=CC2C(=O)NC(=O)C2N1Nc1ccccn1 (configuration not stated)" subject_of_test="Follistatin-related protein 3 (Homo sapiens) (UniProt O95633)" obs_value=0.401
molecule=CCCN1C(=O)[C@@]2(c3ccc([N+](=O)[O-])cc3)CC(=O)N(CC34CC5CC(CC(C5)C3)C4)[C@@H]2c2ccc(CO)cc21 subject_of_test="Follistatin-related protein 3 (Homo sapiens) (UniProt O95633)" obs_value=-0.701

Continue with the molecule presented below.
Given the molecule O=C1NC(=O)C2C1C=CC(C(O)c1ccc(B(O)O)cc1)N2Nc1ccc(Cl)cc1Cl (configuration not stated) , what is its reported composite z-score?
0.317

* * *

test system: Plasmodium falciparum Sir2 (PF13_0152, Sir2A); assay: Plasmodium falciparum Sir2A binding compounds – biochemical, small-molecule microarray, 635 nm fluorescence, primary screen (AID 1098); conditions: fluorescence 635 nm, higher = more signal;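 note: score merges spot fluorescence intensity with its signal-to-noise ratio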
OBSERVATION_TYPE: composite z-score

// solved cases for composite z-score follow
record_smiles=O=C1O[C@@H](c2ccccc2)[C@@H](c2ccccc2)N2[C@@H](c3ccc(OCCO)cc3)[C@]3(C(=O)Nc4ccc(C#CC5(O)CCCCCC5)cc43)[C@@H](C(=O)O)[C@H]12 obs_value=1.46
record_smiles=Cc1ccc(S[C@]2(C(=O)NCCCN(C)C)CC(=O)N(C3Cc4ccccc4C3)[C@@H]2c2ccc(CO)cc2I)cc1 obs_value=1.58
record_smiles=C=C(CCCC)C(=O)CC[C@H](OC(=O)c1ccccc1-c1ccccc1C(=O)O)c1ccc(OCCO)cc1 obs_value=1.25
record_smiles=C=CC[C@@]12N=C(c3ccc(OCCCO)cc3)O[C@@H]1c1ccccc1N(CCC)C2=O obs_value=1.58

// map "O=C(O)[C@H](Cc1ccccc1)n1cc(C2(O)CCCCC2)nn1" to recorded composite z-score (system: Plasmodium falciparum Sir2 (PF13_0152, Sir2A))
-0.0685

* * *

assay: growth modulation of vineyard yeast isolate – strain RM11-1a, OD600, basal, 24 h, primary screen (AID 1177);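 note: cultures grown under basal conditions with no added stressor; test concentration not given here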; details: S. cerevisiae RM11-1a growth, OD600, 24 h; higher = more signal, called active from +8 up or from −8 down
OBSERVATION_TYPE: z-score
Answers are plain numbers.

For every listed record, write down its z-score.
1. CC(C)(C)N1CC=CC23O[C@@H]4/C=C\CCCOC(=O)C4[C@H]2C(=O)N(CCCO)[C@@H]3C1=O (some centres not stated)
2. C=CCC(OC(C)=O)[C@@H]1[C@@H](N(Cc2cccc3ccccc23)C(=O)c2ccc(-c3ccccc3)cc2)c2cc(OCCCO)ccc2N1C(=O)Cc1ccc2ccccc2c1 (some centres not stated)
3. CCCNC(=O)[C@@]1(c2ccc([N+](=O)[O-])cc2)CC(=O)N(C(C)C)[C@@H]1c1ccc(CO)cc1
4. COC(=O)[C@@]1(Cc2ccc(F)cc2)[C@H]2c3cc(C(=O)N4CCCC4)n(Cc4ccccn4)c3C[C@H]2CN1C(=O)c1ccccc1

1. -1.06
2. -0.368
3. -0.355
4. 0.938

Please give z-score, item by item, for the list that follows.
1. COC(=O)C(CC#Cc1ccc2c(c1)[C@]1(C(=O)N2)[C@H](c2ccc(OCCO)cc2)N2[C@H](c3ccccc3)[C@H](c3ccccc3)OC(=O)[C@H]2[C@@H]1C(=O)N1CCCCCCC1)C(=O)OC
2. COC(=O)C[C@H]1O[C@@]2(C[C@@H]1[Si](C)(C)C)C(=O)N(C)c1ccccc12
3. O=C1NC(=O)C2C1C=CC(C(O)c1ccc([N+](=O)[O-])cc1)N2Nc1ccccn1 (configuration not stated)

1: 1.3; 2: -3.42; 3: 0.485

* * *

biological target: Neurogenic locus notch homolog protein 3 (Homo sapiens) (UniProt Q9UM47); assay: small molecules binding NOTCH3 protein – biochemical, 635/667 nm fluorescence, primary screen (AID 1096); details: small-molecule microarray, 635 nm fluorescence, higher = more signal
Sequence (Q9UM47 whole entry, looked up): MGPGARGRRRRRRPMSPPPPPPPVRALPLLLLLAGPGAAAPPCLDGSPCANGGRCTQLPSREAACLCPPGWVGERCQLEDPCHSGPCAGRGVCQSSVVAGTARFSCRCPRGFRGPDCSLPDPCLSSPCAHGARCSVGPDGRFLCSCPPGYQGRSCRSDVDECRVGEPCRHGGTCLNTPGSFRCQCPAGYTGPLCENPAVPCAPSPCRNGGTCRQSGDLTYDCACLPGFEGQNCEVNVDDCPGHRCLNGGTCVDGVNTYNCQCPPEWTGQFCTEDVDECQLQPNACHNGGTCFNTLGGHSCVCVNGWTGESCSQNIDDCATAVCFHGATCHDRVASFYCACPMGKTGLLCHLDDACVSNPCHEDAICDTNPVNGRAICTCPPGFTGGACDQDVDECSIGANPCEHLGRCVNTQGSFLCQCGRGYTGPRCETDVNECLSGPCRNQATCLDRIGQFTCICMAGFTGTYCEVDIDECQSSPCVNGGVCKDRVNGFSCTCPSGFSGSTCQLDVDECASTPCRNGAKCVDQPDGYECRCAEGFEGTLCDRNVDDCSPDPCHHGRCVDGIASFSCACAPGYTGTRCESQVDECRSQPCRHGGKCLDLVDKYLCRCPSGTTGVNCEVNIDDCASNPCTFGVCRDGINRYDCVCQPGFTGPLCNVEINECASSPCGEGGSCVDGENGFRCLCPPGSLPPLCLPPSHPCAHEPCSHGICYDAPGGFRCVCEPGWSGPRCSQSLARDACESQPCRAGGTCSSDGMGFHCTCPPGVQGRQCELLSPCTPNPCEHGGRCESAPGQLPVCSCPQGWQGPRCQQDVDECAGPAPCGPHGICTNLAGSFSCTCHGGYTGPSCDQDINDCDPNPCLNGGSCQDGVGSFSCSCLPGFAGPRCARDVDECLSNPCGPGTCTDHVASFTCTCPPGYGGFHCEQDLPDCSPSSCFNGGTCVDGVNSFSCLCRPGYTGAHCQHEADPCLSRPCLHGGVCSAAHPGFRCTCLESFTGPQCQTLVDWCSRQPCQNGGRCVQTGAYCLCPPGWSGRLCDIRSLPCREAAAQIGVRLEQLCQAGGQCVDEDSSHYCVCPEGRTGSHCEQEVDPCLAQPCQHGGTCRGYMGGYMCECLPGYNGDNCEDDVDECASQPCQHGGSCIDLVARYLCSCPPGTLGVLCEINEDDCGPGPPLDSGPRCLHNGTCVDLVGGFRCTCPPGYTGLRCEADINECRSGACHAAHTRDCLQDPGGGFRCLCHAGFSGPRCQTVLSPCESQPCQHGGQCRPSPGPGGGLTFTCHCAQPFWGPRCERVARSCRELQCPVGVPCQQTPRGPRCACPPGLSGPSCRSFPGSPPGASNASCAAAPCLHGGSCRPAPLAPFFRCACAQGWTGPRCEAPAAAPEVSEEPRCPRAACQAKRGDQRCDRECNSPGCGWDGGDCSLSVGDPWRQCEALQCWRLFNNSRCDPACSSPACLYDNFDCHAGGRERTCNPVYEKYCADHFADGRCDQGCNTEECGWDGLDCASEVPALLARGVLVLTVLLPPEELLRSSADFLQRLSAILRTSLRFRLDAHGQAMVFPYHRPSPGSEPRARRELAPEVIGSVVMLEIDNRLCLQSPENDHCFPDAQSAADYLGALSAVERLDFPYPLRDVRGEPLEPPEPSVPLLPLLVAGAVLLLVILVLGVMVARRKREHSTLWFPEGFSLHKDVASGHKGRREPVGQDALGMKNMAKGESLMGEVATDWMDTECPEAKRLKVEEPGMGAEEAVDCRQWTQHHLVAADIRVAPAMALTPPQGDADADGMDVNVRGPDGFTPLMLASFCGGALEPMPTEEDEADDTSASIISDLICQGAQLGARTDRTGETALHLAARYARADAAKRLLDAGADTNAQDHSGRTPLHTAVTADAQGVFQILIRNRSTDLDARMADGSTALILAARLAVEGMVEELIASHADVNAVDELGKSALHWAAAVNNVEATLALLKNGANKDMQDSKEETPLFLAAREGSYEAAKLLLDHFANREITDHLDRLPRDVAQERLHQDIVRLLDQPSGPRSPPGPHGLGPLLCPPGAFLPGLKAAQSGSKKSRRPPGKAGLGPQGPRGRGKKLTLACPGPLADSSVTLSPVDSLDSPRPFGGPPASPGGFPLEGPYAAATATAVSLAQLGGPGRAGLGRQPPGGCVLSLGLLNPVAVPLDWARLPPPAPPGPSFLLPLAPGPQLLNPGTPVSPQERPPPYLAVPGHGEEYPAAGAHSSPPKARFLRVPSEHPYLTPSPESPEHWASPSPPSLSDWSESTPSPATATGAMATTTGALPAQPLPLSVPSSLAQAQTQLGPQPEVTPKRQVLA
Would you kindly list composite z-score for each of these molecules?
One number for each entry.

Worked examples follow.
molecule=O=C1O[C@H](Cc2ccccc2)[C@@H]2[C@H]3C=CCCC=C3CN2[C@H]1Cc1ccc(O)cc1 subject_of_test="Neurogenic locus notch homolog protein 3 (Homo sapiens) (UniProt Q9UM47)" observation_type="composite z-score" obs_value=-0.268
molecule="O=C1OCCC=C[C@H]2OC34C=CCN(c5ccc6ccccc6c5)C(=O)[C@H]3N(CCO)C(=O)[C@@H]4C12 (some centres not stated)" subject_of_test="Neurogenic locus notch homolog protein 3 (Homo sapiens) (UniProt Q9UM47)" observation_type="composite z-score" obs_value=0.301
molecule=COc1ccc([Si](C)(C)[C@@H]2[C@@H](CC(=O)N(CCO)Cc3ccccc3)O[C@]3(C(=O)N(Cc4ccc(N5C(=O)c6cccc7cccc5c67)cc4)c4ccccc43)[C@H]2C)cc1 subject_of_test="Neurogenic locus notch homolog protein 3 (Homo sapiens) (UniProt Q9UM47)" observation_type="composite z-score" obs_value=0.223

Look up composite z-score for the entries below, preserving their order.
1. CN(C)C(=O)[C@]1(Cc2ccccc2)N=C(c2ccc(OCCCO)cc2)O[C@@H]1c1ccccc1CN=[N+]=[N-]
2. C=C(/C(=C/C[C@@H](OC(C)=O)c1cccc(OCCO)c1)c1cnc2ccccc2c1)C(C)C
3. COc1ccc(C(=O)Nc2cccc(CN3C(=O)[C@]4(O[C@H](CC(=O)N5Cc6ccccc6C[C@H]5CO)[C@@H]([Si](C)(C)c5ccc(OC)cc5)[C@@H]4C)c4ccccc43)c2)cc1

1: 1.07; 2: 0.801; 3: 1.1

Would you mind telling me what composite z-score value was observed for "C=CC[C@@]1(C(=O)OC)N=C(c2ccc(OCCCO)cc2)O[C@@H]1c1ccccc1N=[N+]=[N-]" ?
1.07

Recorded values, source PubChem BioAssay.
